Biological target: TsaBgl (Thermoanaerobacterium saccharolyticum, UniProt I3VXG7)
Sequence (I3VXG7 entry or part of it): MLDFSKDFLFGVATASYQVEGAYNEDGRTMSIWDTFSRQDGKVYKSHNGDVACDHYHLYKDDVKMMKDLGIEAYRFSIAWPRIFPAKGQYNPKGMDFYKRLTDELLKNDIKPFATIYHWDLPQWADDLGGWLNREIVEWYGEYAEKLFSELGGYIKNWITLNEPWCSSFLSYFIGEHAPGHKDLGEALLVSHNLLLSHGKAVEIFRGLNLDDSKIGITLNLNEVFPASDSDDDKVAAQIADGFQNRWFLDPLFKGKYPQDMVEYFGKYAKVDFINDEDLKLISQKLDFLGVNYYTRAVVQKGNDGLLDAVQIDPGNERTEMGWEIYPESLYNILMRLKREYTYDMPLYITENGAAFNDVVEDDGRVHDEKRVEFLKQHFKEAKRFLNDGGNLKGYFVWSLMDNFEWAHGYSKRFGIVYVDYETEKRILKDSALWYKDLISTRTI
MEASURED_ATTRIBUTE: IC50

INSERT INTO measurements (smiles, observed) VALUES
  ('NC(CO)(CO)CO', '~10 mM');
